Each record here notes measured melting point.

{"columns": ["compound", "melting point"],
 "data": [
  ["CCOCc1nc2c(N)nc3cccnc3c2n1C1(OC)CCCCC1", "160 to 161 °C"],
  ["CC(=O)NC12Oc3c(C(C)C)cc(C(C)C)cc3C1(O)C(=O)c1ccccc12 (stereo not given)", "217 to 219 °C"],
  ["O=C(COc1ccccc1)c1ccc(Cl)cc1", "80 to 83 °C"],
  ["CCOC(=O)c1sc(NC(=O)c2cc(-c3cccs3)ccc2O)nc1-c1ccccc1", "213 to 214 °C"],
  ["CCC[C@H]1C(=O)N(S(=O)(=O)c2cccc3ccccc23)[C@H]2CCN(S(C)(=O)=O)[C@H]12 (relative stereo)", "185 to 187 °C"]
]}
